# subjectOfTest: C3 purified from fresh human plasma (human, UniProt P01024 23-1663)
# Sequence (P01024 23-1663): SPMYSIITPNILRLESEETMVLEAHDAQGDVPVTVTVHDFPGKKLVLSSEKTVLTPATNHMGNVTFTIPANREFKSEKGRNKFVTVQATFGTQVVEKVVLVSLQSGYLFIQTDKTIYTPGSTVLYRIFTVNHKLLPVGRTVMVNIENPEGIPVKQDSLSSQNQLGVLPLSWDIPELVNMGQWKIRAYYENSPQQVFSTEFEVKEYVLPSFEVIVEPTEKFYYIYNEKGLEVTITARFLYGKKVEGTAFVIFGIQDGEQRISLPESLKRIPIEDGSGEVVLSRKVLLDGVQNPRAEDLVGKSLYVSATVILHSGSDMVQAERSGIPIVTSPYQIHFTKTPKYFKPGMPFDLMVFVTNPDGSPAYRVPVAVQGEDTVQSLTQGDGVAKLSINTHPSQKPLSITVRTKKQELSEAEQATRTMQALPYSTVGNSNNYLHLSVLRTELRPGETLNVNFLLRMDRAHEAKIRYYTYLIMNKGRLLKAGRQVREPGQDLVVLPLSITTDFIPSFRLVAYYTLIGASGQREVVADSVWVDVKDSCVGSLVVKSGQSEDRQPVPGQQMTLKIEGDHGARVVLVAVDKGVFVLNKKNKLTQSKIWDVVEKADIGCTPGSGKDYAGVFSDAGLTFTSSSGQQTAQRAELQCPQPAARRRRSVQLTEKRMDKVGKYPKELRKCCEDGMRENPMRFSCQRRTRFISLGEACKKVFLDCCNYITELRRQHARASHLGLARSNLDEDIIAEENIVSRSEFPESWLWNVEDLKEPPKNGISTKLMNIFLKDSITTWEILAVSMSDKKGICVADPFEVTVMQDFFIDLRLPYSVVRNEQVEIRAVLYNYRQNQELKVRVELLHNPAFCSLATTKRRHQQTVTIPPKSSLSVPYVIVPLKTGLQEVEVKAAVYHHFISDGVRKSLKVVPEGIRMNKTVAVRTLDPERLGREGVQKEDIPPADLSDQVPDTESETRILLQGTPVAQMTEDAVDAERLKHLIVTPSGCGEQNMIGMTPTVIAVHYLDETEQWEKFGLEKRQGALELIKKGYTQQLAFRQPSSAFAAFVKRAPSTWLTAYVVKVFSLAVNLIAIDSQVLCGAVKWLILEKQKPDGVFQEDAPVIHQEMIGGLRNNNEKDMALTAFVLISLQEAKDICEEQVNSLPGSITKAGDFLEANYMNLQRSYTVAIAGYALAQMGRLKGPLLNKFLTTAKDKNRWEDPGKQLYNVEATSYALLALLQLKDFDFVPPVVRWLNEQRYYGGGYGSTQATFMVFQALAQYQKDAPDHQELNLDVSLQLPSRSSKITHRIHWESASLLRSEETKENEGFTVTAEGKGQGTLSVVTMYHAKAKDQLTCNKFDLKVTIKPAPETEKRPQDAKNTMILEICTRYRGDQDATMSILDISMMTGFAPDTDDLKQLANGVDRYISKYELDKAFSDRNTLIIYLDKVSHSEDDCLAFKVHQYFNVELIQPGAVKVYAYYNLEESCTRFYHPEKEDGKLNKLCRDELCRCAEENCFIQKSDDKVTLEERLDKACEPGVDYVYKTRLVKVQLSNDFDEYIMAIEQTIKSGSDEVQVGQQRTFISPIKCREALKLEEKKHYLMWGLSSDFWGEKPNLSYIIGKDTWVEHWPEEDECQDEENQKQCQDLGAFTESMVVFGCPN
# assayInfo: cell-based or functional assay
Bridge positions count the residues as written; N and C are the ends. Square brackets hold non-standard residues; d marks the D form. Trp(1-Me) = Cn1cc(C[C@H](N)C(=O)O)c2ccccc21; NMeI = CC[C@H](C)[C@H](NC)C(=O)O; Sar = CNCC(=O)O
Record form. Attribute: Fold change in activity (IC50) relative to SEQ ID NO:4. Fill in for each entry.
Write down the numeric answer in fold and omit the unit.

Query: Look at this binder and give its reported Fold change in activity (IC50) relative to SEQ ID NO:4. Ac-ICV[Trp(1-Me)]QDW[Sar]AHRC[NMeI]-NH2 (disulfide 2-12; SMILES CC[C@H](C)[C@H](NC(C)=O)C(=O)N[C@H]1CSSC[C@@H](C(=O)N(C)[C@H](C(N)=O)[C@@H](C)CC)NC(=O)[C@H](CCCNC(=N)N)NC(=O)[C@H](Cc2c[nH]cn2)NC(=O)[C@H](C)NC(=O)CN(C)C(=O)[C@H](Cc2c[nH]c3ccccc23)NC(=O)[C@H](CC(=O)O)NC(=O)[C@H](CCC(N)=O)NC(=O)[C@H](Cc2cn(C)c3ccccc23)NC(=O)[C@H](C(C)C)NC1=O, Sar^8, (NMe)Ile^13; also called peptide 21; analog 21) [Ac-Ic[CV(1-MeW)QDW(N-MeG)AHRC](N-MeI)-NH2]
Result: 3.32

Query: Look at this binder and give its reported Fold change in activity (IC50) relative to SEQ ID NO:4. Ac-ICV[Trp(1-Me)]QDW[Sar]AHRCL-NH2 (disulfide 2-12; SMILES CC[C@H](C)[C@H](NC(C)=O)C(=O)N[C@H]1CSSC[C@@H](C(=O)N[C@@H](CC(C)C)C(N)=O)NC(=O)[C@H](CCCNC(=N)N)NC(=O)[C@H](Cc2c[nH]cn2)NC(=O)[C@H](C)NC(=O)CN(C)C(=O)[C@H](Cc2c[nH]c3ccccc23)NC(=O)[C@H](CC(=O)O)NC(=O)[C@H](CCC(N)=O)NC(=O)[C@H](Cc2cn(C)c3ccccc23)NC(=O)[C@H](C(C)C)NC1=O) [Ac-Ic[CV(1-MeW)QDW(N-MeG)AHRC]L-NH2]
Result: 1.91

Query: Look at this binder and give its reported Fold change in activity (IC50) relative to SEQ ID NO:4. Ac-ICV[Trp(1-Me)]QDW[Sar]AHRCI-NH2 (disulfide 2-12; SMILES CC[C@H](C)[C@H](NC(=O)[C@@H]1CSSC[C@H](NC(=O)[C@@H](NC(C)=O)[C@@H](C)CC)C(=O)N[C@@H](C(C)C)C(=O)N[C@@H](Cc2cn(C)c3ccccc23)C(=O)N[C@@H](CCC(N)=O)C(=O)N[C@@H](CC(=O)O)C(=O)N[C@@H](Cc2c[nH]c3ccccc23)C(=O)N(C)CC(=O)N[C@@H](C)C(=O)N[C@@H](Cc2c[nH]cn2)C(=O)N[C@@H](CCCNC(=N)N)C(=O)N1)C(N)=O, Sar^8, Ile^13; also called peptide 17; Ac-Ic[CV(1-MeW)QDW(N-MeG)AHRC]I-NH2) [Ac-Ile-c[Cys-Val-Trp(Me)-Gln-Asp-Trp-Sar-Ala-His-Arg-Cys]-Ile-NH2]
Result: 2.24
